Task for the reader: assign each of the following molecules its reported kinase still bound, per cent of control.
# tested.system: DYRK2 (human) (UniProt Q92630)
# assay.text: KINOMEscan competition binding
# test.parameters: compound 1.0 µM
Quick reminder: number only, in %, skip the unit.

Form: molecule = `Cc1cc(NC(=O)c2cccc(NC(=O)/C=C/CN(C)C)c2)ccc1Nc1nccc(-c2cccnc2)n1` ; kinase still bound, per cent of control = 20

Form: molecule = `CN(C)C/C=C/C(=O)Nc1cccc(C(=O)Nc2ccc(Nc3nccc(/C(C#N)=C4\Nc5ccccc5S4)n3)cc2)c1` ; kinase still bound, per cent of control = 15

Form: molecule = `CN(C)C/C=C/C(=O)Nc1cccc(C(=O)Nc2ccc(Nc3nccc(-c4cccnc4)n3)cc2)c1` ; kinase still bound, per cent of control = 3.2

Form: molecule = `CN(C)C/C=C/C(=O)Nc1cccc(C(=O)Nc2ccc(Nc3nccc(-c4c(-c5ccccc5)nn5ccccc45)n3)cc2)c1` ; kinase still bound, per cent of control = 100

* * *

# tested.system: UniProt:Q13153
# Sequence (Q13153 whole entry, looked up): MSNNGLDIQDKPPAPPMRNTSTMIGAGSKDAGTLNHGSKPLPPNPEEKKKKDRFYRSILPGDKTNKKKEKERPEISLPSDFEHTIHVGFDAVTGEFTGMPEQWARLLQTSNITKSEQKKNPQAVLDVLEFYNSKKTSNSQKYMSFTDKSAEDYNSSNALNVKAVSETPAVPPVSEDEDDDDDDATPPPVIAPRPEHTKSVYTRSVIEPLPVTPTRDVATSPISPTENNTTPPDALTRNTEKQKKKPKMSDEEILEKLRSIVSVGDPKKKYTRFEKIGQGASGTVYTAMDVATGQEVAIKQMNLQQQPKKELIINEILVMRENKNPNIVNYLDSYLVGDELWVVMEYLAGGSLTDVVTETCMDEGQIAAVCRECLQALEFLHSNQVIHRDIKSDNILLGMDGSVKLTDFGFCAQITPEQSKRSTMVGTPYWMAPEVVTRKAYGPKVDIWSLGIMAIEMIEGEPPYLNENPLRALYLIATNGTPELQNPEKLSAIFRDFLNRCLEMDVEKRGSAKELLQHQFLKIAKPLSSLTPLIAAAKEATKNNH
# assay.text: KINOMEscan competition binding
# test.parameters: compound 1.0 µM
Task for the reader: assign each of the following molecules its reported kinase still bound, per cent of control.
Quick reminder: number only, in %, skip the unit.

Entry `CN(C)C/C=C/C(=O)Nc1cccc(C(=O)Nc2ccc(Nc3nccc(/C(C#N)=C4\Nc5ccccc5S4)n3)cc2)c1` , tested on UniProt:Q13153, has a reported kinase still bound, per cent of control of 100

Entry `CN(C)C/C=C/C(=O)Nc1cccc(C(=O)Nc2ccc(Nc3nccc(-c4c(-c5ccccc5)nn5ccccc45)n3)cc2)c1` , tested on UniProt:Q13153, has a reported kinase still bound, per cent of control of 98

Entry `CN(C)C/C=C/C(=O)Nc1cccc(C(=O)Nc2ccc(Nc3nccc(-c4cccnc4)n3)cc2)c1` , tested on UniProt:Q13153, has a reported kinase still bound, per cent of control of 69

Entry `Cc1cc(NC(=O)c2cccc(NC(=O)/C=C/CN(C)C)c2)ccc1Nc1nccc(-c2cccnc2)n1` , tested on UniProt:Q13153, has a reported kinase still bound, per cent of control of 100

* * *

# tested.system: JAK3 JH1 catalytic (human) (UniProt P52333)
# Sequence (P52333 whole entry, looked up): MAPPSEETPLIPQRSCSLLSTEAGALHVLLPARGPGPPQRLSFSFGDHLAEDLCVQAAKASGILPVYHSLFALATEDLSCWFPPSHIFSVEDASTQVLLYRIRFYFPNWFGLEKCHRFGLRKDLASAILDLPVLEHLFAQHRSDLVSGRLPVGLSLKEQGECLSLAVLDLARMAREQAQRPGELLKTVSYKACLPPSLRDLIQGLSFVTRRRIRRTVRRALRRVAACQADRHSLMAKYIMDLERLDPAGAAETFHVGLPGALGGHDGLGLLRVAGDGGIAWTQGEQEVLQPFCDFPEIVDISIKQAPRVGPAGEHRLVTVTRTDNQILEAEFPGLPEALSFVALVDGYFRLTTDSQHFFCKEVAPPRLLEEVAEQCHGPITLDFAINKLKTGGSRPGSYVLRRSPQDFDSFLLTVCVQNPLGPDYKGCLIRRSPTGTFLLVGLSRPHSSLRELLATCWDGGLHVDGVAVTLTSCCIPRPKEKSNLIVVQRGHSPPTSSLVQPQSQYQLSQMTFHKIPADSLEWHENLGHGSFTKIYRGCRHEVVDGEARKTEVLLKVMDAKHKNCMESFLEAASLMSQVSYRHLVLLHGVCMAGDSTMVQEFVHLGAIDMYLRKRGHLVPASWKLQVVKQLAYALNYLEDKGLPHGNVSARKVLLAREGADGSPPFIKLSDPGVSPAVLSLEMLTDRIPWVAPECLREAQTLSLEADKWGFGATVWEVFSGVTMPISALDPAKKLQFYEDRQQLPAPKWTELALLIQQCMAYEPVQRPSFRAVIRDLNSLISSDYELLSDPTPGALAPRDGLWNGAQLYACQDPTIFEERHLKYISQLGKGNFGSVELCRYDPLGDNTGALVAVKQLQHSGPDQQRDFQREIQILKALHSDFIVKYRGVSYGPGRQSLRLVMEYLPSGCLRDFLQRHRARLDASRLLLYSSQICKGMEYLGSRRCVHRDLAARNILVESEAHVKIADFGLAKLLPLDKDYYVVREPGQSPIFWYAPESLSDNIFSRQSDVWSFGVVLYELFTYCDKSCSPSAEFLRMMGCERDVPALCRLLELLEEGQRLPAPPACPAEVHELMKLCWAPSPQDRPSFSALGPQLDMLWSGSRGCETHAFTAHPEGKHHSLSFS
# assay.text: KINOMEscan competition binding
# test.parameters: compound 1.0 µM
property.label: kinase still bound, per cent of control (%)
Quick reminder: number only, in %, skip the unit.

Form: compound = `CN(C)C/C=C/C(=O)Nc1cccc(C(=O)Nc2ccc(Nc3nccc(/C(C#N)=C4\Nc5ccccc5S4)n3)cc2)c1` ; kinase still bound, per cent of control = 83

Form: compound = `Cc1cc(NC(=O)c2cccc(NC(=O)/C=C/CN(C)C)c2)ccc1Nc1nccc(-c2cccnc2)n1` ; kinase still bound, per cent of control = 87

Form: compound = `CN(C)C/C=C/C(=O)Nc1cccc(C(=O)Nc2ccc(Nc3nccc(-c4c(-c5ccccc5)nn5ccccc45)n3)cc2)c1` ; kinase still bound, per cent of control = 49

Form: compound = `CN(C)C/C=C/C(=O)Nc1cccc(C(=O)Nc2ccc(Nc3nccc(-c4cccnc4)n3)cc2)c1` ; kinase still bound, per cent of control = 27

* * *

# tested.system: UniProtKB O14757
# assay.text: KINOMEscan competition binding
# test.parameters: compound 1.0 µM
property.label: kinase still bound, per cent of control
Reply with the number, then its unit.

Form: compound = `CN(C)C/C=C/C(=O)Nc1cccc(C(=O)Nc2ccc(Nc3nccc(-c4cccnc4)n3)cc2)c1` ; kinase still bound, per cent of control = 100%

Form: compound = `CN(C)C/C=C/C(=O)Nc1cccc(C(=O)Nc2ccc(Nc3nccc(/C(C#N)=C4\Nc5ccccc5S4)n3)cc2)c1` ; kinase still bound, per cent of control = 100%

Form: compound = `CN(C)C/C=C/C(=O)Nc1cccc(C(=O)Nc2ccc(Nc3nccc(-c4c(-c5ccccc5)nn5ccccc45)n3)cc2)c1` ; kinase still bound, per cent of control = 100%

Form: compound = `Cc1cc(NC(=O)c2cccc(NC(=O)/C=C/CN(C)C)c2)ccc1Nc1nccc(-c2cccnc2)n1` ; kinase still bound, per cent of control = 98%

* * *

property.label: IC50 (nM)
Quick reminder: number only, in nM, skip the unit.

Entry `CN(C)C/C=C/C(=O)Nc1cccc(C(=O)Nc2ccc(Nc3nccc(-c4c(-c5ccccc5)nn5ccccc45)n3)cc2)c1` , tested on EPHB2 (human), has a reported IC50 of 138

* * *

# tested.system: PRKCI (human) (UniProt P41743)
# Sequence (P41743 whole entry, looked up): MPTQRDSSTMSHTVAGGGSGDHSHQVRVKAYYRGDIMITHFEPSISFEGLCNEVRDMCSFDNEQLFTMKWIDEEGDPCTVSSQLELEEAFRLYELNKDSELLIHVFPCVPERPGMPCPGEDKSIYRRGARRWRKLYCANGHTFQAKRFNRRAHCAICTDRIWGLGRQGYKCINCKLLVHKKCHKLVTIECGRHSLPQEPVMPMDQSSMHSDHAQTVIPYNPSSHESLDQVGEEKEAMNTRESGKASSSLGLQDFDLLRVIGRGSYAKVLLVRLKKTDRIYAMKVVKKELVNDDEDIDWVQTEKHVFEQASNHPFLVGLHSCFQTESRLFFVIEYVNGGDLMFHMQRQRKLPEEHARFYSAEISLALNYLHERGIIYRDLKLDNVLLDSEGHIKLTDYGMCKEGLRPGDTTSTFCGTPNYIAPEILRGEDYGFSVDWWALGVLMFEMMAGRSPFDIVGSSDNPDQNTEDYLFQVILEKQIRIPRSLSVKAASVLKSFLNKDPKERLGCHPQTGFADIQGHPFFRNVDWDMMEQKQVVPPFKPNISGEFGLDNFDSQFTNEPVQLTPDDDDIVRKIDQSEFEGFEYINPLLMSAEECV
# assay.text: KINOMEscan competition binding
# test.parameters: compound 1.0 µM
property.label: kinase still bound, per cent of control (%)
Quick reminder: number only, in %, skip the unit.

Form: molecule = `CN(C)C/C=C/C(=O)Nc1cccc(C(=O)Nc2ccc(Nc3nccc(-c4c(-c5ccccc5)nn5ccccc45)n3)cc2)c1` ; kinase still bound, per cent of control = 46

Form: molecule = `Cc1cc(NC(=O)c2cccc(NC(=O)/C=C/CN(C)C)c2)ccc1Nc1nccc(-c2cccnc2)n1` ; kinase still bound, per cent of control = 93

Form: molecule = `CN(C)C/C=C/C(=O)Nc1cccc(C(=O)Nc2ccc(Nc3nccc(-c4cccnc4)n3)cc2)c1` ; kinase still bound, per cent of control = 100

Form: molecule = `CN(C)C/C=C/C(=O)Nc1cccc(C(=O)Nc2ccc(Nc3nccc(/C(C#N)=C4\Nc5ccccc5S4)n3)cc2)c1` ; kinase still bound, per cent of control = 100

* * *

# tested.system: KIT (human), P10721 [V559D/T670I]
# Sequence (P10721 whole entry V559D/T670I, looked up): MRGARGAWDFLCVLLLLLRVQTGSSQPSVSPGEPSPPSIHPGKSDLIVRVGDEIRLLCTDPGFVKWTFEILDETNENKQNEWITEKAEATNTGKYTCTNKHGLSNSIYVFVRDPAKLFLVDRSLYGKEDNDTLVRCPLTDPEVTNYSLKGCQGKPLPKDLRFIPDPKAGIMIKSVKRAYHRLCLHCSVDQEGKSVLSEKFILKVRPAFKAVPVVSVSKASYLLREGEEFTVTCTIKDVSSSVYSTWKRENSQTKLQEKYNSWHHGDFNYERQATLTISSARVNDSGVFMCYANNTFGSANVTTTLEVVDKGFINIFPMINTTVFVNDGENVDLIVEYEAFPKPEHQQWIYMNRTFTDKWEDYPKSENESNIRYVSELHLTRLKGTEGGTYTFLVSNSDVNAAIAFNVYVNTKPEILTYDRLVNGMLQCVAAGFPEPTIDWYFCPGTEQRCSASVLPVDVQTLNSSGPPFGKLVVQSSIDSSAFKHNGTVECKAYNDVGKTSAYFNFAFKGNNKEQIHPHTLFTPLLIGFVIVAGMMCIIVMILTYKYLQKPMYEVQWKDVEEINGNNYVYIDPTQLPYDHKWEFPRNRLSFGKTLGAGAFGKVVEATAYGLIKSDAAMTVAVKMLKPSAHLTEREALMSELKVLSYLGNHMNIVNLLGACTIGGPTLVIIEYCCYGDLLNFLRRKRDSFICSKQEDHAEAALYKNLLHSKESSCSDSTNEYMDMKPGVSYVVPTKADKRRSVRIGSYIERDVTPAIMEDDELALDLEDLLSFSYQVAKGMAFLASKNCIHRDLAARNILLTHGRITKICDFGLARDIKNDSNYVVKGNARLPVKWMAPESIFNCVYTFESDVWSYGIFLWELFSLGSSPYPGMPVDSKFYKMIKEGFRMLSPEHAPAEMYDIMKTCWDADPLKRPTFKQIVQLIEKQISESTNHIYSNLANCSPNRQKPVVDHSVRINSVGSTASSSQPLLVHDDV
# assay.text: KINOMEscan competition binding
property.label: pKd
Bear in mind: pKd is minus log10 of a mol/L concentration; give just that figure.

Form: molecule = `CN(C)C/C=C/C(=O)Nc1cccc(C(=O)Nc2ccc(Nc3nccc(/C(C#N)=C4\Nc5ccccc5S4)n3)cc2)c1` ; pKd = 6.80

* * *

# tested.system: ULK3 (human)
# assay.text: KINOMEscan competition binding
# test.parameters: compound 1.0 µM
property.label: kinase still bound, per cent of control (%)
Quick reminder: number only, in %, skip the unit.

Entry `CN(C)C/C=C/C(=O)Nc1cccc(C(=O)Nc2ccc(Nc3nccc(-c4cccnc4)n3)cc2)c1` , tested on ULK3 (human), has a reported kinase still bound, per cent of control of 7

Entry `CN(C)C/C=C/C(=O)Nc1cccc(C(=O)Nc2ccc(Nc3nccc(-c4c(-c5ccccc5)nn5ccccc45)n3)cc2)c1` , tested on ULK3 (human), has a reported kinase still bound, per cent of control of 84

Entry `Cc1cc(NC(=O)c2cccc(NC(=O)/C=C/CN(C)C)c2)ccc1Nc1nccc(-c2cccnc2)n1` , tested on ULK3 (human), has a reported kinase still bound, per cent of control of 40

Entry `CN(C)C/C=C/C(=O)Nc1cccc(C(=O)Nc2ccc(Nc3nccc(/C(C#N)=C4\Nc5ccccc5S4)n3)cc2)c1` , tested on ULK3 (human), has a reported kinase still bound, per cent of control of 100

* * *

# tested.system: UniProt:Q15349
# Sequence (Q15349 whole entry, looked up): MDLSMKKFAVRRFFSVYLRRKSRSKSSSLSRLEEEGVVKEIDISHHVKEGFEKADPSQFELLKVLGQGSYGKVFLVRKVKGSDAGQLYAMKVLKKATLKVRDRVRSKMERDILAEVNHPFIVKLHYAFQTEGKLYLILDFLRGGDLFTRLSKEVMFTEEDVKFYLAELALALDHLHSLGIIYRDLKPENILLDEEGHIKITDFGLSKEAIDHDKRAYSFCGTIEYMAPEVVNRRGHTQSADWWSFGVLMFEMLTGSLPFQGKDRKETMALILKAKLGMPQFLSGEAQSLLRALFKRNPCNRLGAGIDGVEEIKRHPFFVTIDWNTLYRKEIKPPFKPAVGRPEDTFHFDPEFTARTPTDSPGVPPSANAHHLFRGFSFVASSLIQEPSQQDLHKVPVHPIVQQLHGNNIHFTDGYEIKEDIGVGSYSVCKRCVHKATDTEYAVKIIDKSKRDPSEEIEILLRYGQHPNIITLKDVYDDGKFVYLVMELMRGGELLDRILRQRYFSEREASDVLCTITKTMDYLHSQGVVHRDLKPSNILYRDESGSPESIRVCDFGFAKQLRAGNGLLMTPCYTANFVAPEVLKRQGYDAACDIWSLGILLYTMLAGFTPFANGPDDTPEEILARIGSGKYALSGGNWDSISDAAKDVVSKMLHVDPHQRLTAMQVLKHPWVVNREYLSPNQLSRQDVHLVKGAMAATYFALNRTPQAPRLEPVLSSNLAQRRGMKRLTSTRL
# assay.text: KINOMEscan competition binding
# test.parameters: compound 1.0 µM
Task for the reader: assign each of the following compounds its reported kinase still bound, per cent of control.
Quick reminder: number only, in %, skip the unit.

Entry `CN(C)C/C=C/C(=O)Nc1cccc(C(=O)Nc2ccc(Nc3nccc(-c4c(-c5ccccc5)nn5ccccc45)n3)cc2)c1` , tested on UniProt:Q15349, has a reported kinase still bound, per cent of control of 86

Entry `Cc1cc(NC(=O)c2cccc(NC(=O)/C=C/CN(C)C)c2)ccc1Nc1nccc(-c2cccnc2)n1` , tested on UniProt:Q15349, has a reported kinase still bound, per cent of control of 100

Entry `CN(C)C/C=C/C(=O)Nc1cccc(C(=O)Nc2ccc(Nc3nccc(/C(C#N)=C4\Nc5ccccc5S4)n3)cc2)c1` , tested on UniProt:Q15349, has a reported kinase still bound, per cent of control of 98

Entry `CN(C)C/C=C/C(=O)Nc1cccc(C(=O)Nc2ccc(Nc3nccc(-c4cccnc4)n3)cc2)c1` , tested on UniProt:Q15349, has a reported kinase still bound, per cent of control of 100

* * *

# tested.system: ADCK3 (human)
# assay.text: KINOMEscan competition binding
# test.parameters: compound 1.0 µM
property.label: kinase still bound, per cent of control (%)
Quick reminder: number only, in %, skip the unit.

Form: molecule = `CN(C)C/C=C/C(=O)Nc1cccc(C(=O)Nc2ccc(Nc3nccc(/C(C#N)=C4\Nc5ccccc5S4)n3)cc2)c1` ; kinase still bound, per cent of control = 82

Form: molecule = `Cc1cc(NC(=O)c2cccc(NC(=O)/C=C/CN(C)C)c2)ccc1Nc1nccc(-c2cccnc2)n1` ; kinase still bound, per cent of control = 100

Form: molecule = `CN(C)C/C=C/C(=O)Nc1cccc(C(=O)Nc2ccc(Nc3nccc(-c4c(-c5ccccc5)nn5ccccc45)n3)cc2)c1` ; kinase still bound, per cent of control = 0

Form: molecule = `CN(C)C/C=C/C(=O)Nc1cccc(C(=O)Nc2ccc(Nc3nccc(-c4cccnc4)n3)cc2)c1` ; kinase still bound, per cent of control = 58

* * *

Task for the reader: assign each of the following molecules its reported kinase still bound, per cent of control.
# tested.system: EPHA4 (human) (UniProt P54764)
# Sequence (P54764 whole entry, looked up): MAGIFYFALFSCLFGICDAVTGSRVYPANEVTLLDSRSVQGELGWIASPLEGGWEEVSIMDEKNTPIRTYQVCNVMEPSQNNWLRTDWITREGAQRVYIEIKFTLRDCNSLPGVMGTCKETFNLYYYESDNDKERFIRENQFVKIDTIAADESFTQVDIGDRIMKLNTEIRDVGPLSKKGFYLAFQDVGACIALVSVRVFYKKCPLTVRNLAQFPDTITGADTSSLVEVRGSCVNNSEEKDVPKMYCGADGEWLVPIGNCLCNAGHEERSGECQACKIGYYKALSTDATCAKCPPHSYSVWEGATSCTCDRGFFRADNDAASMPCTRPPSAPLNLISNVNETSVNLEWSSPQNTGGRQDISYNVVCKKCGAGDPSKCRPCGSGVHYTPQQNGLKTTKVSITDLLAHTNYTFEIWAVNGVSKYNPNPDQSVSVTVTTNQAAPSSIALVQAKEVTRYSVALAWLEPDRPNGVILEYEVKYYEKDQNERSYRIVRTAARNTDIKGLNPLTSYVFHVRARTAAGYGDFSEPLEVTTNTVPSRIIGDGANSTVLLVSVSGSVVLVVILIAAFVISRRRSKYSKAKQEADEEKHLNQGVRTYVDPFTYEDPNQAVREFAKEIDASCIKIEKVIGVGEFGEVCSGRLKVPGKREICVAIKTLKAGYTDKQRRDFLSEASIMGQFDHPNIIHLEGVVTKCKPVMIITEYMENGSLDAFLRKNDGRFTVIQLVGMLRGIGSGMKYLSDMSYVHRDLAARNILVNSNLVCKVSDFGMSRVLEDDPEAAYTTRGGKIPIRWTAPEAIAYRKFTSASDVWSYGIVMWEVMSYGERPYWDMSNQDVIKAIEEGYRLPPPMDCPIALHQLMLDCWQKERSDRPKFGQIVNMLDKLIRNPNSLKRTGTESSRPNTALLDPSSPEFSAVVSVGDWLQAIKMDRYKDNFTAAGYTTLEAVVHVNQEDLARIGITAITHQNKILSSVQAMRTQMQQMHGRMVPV
# assay.text: KINOMEscan competition binding
# test.parameters: compound 1.0 µM
Quick reminder: number only, in %, skip the unit.

Form: molecule = `CN(C)C/C=C/C(=O)Nc1cccc(C(=O)Nc2ccc(Nc3nccc(-c4c(-c5ccccc5)nn5ccccc45)n3)cc2)c1` ; kinase still bound, per cent of control = 89

Form: molecule = `CN(C)C/C=C/C(=O)Nc1cccc(C(=O)Nc2ccc(Nc3nccc(-c4cccnc4)n3)cc2)c1` ; kinase still bound, per cent of control = 94

Form: molecule = `Cc1cc(NC(=O)c2cccc(NC(=O)/C=C/CN(C)C)c2)ccc1Nc1nccc(-c2cccnc2)n1` ; kinase still bound, per cent of control = 100

Form: molecule = `CN(C)C/C=C/C(=O)Nc1cccc(C(=O)Nc2ccc(Nc3nccc(/C(C#N)=C4\Nc5ccccc5S4)n3)cc2)c1` ; kinase still bound, per cent of control = 100
